# test_summary: amyloid nucleation score (Sup35N fusion, yeast selection) (log enrichment); library NNK3; higher = more nucleation; inactive = no reads after selection;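 note: zero at mode of non-aggregating sequences after 7 days selection at 30°C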
measurement_kind: amyloid nucleation score

[[record]]
substance = "GQWLSDTR"
measurement_kind = "amyloid nucleation score"
result_value = "inactive"

[[record]]
substance = "HKNEVKWFFFQPGKEMLGGR"
measurement_kind = "amyloid nucleation score"
result_value = "inactive"

[[record]]
substance = "NWQYLNG"
measurement_kind = "amyloid nucleation score"
result_value = "inactive"


---

# test_summary: amyloid nucleation score (Sup35N fusion, yeast selection) (log enrichment); library NNK3; higher = more nucleation; inactive = no reads after selection
measurement_kind: amyloid nucleation score

[[record]]
substance = "FECDKENSSLDSPFMLAFKD"
result_value = "inactive"

[[record]]
substance = "GVSILCLVLWSMWTLGGESW"
result_value = "inactive"

[[record]]
substance = "SRSVSESDVMGTVGIYAEFS"
result_value = "inactive"

[[record]]
substance = "RGQFICRCGVARPV"
result_value = "inactive"

[[record]]
substance = "MLARHCQQGGRDHPWLGSVL"
result_value = "inactive"

[[record]]
substance = "WSAIVDSWCDSSRRVEIVVR"
result_value = "inactive"

[[record]]
substance = "VLILCIKNTCLNQCASSCHR"
result_value = 2.02

[[record]]
substance = "NGDGLVLYIRLLRLRRHVDT"
result_value = "inactive"

[[record]]
substance = "NFRLYLLNCN"
result_value = "inactive"

[[record]]
substance = "WDPGFFWIMAVARFTIACQY"
result_value = "inactive"

[[record]]
substance = "SRLIRKMKCVMGSTSSTIGY"
result_value = "inactive"

[[record]]
substance = "LNFAHAKMFSFITMVVY"
result_value = "inactive"

[[record]]
substance = "CFYGDFSSILSRKVYDYYIR"
result_value = "inactive"

[[record]]
substance = "CRRNTVFMNRVYNNGLFEEC"
result_value = "inactive"

[[record]]
substance = "KFVVDARFVTS"
result_value = 1.33

[[record]]
substance = "YVTLYLDTGSCYLSLGCGAG"
result_value = 0.758

[[record]]
substance = "TYSSGFAPGWN"
result_value = "inactive"

[[record]]
substance = "TYSIISENIVVFFNRM"
result_value = 2.58

[[record]]
substance = "DFISERHYHRPAGPA"
result_value = "inactive"

[[record]]
substance = "NVLLCINTRYR"
result_value = 1.35

[[record]]
substance = "CLCSMHLRWRSSNWRGYEHF"
result_value = 0.474

[[record]]
substance = "EIGFYCPSGAGGHRKDRVLR"
result_value = "inactive"

[[record]]
substance = "NPDAYKERTDLVWSVVVLLW"
result_value = "inactive"

[[record]]
substance = "WFFETQLSLWWVNGQDLAEV"
result_value = "inactive"

[[record]]
substance = "AKIVECM"
result_value = "inactive"

[[record]]
substance = "CIFYDSLVDWDHHYSHKGWH"
result_value = "inactive"

[[record]]
substance = "LQTVNLLVPACI"
result_value = "inactive"

[[record]]
substance = "GMQPVQQ"
result_value = "inactive"

[[record]]
substance = "DVMSILLTNVMLSKSALELS"
result_value = "inactive"

[[record]]
substance = "GVSIGNCTMKGEVDFMVDGK"
result_value = "inactive"

[[record]]
substance = "ASLVKSHDHMRASHLGGLHK"
result_value = "inactive"

[[record]]
substance = "ECFEVEQGILDAHSNCWGNI"
result_value = 0.778

[[record]]
substance = "ACNDVIHVASSRDLMGAHPR"
result_value = -0.396

[[record]]
substance = "GRYCWCSLLAKYEMSLPRAR"
result_value = -0.405

[[record]]
substance = "YCSLLSDERGSSVTGILAVF"
result_value = "inactive"

[[record]]
substance = "NNSFNYGNHGRSSVFNNLRC"
result_value = "inactive"

[[record]]
substance = "IIGWDDFLLVYNIKLYHNS"
result_value = "inactive"

[[record]]
substance = "TWVCEG"
result_value = "inactive"

[[record]]
substance = "RLLIMSGNNGLLGPSYNAIV"
result_value = -0.01

[[record]]
substance = "LPAEMELVWHRRMNLP"
result_value = "inactive"

[[record]]
substance = "ASGDLAGSKLVSYRVATLIN"
result_value = "inactive"

[[record]]
substance = "VDNSYQFSLKTDSNYNIERQ"
result_value = "inactive"

[[record]]
substance = "KNDGTIVQM"
result_value = "inactive"

[[record]]
substance = "SSLCTL"
result_value = "inactive"

[[record]]
substance = "CDRTIMRSYDPAL"
result_value = 1.16

[[record]]
substance = "LHPSRLDGT"
result_value = 0.411

[[record]]
substance = "HWIHGRR"
result_value = "inactive"

[[record]]
substance = "YLCWAFDTMVSGDRGPRSC"
result_value = -0.102

[[record]]
substance = "TVYELYVDLAVRRSAFAFLP"
result_value = 0.744

[[record]]
substance = "YISSFKFRLSCLRYQIVNSV"
result_value = "inactive"

[[record]]
substance = "TFLCSENQAAMWGIRTGSLL"
result_value = "inactive"

[[record]]
substance = "IWVENQFDRRFLGVSMF"
result_value = "inactive"

[[record]]
substance = "FSAMTPSGRWHDRSRSDVIN"
result_value = "inactive"

[[record]]
substance = "QGSLVKFS"
result_value = "inactive"

[[record]]
substance = "LKSSPNPFMNNGFIISAILG"
result_value = "inactive"

[[record]]
substance = "LSLTYVSPHA"
result_value = 0.968

[[record]]
substance = "WMFSRL"
result_value = "inactive"

[[record]]
substance = "VITLYVVGVYWGGNDIGDFM"
result_value = 0.976

